Entries and their TDCC EC50 (EJM cells) values follow.
Target: T1, human BCMA on BCMA expressing cell lines (human, UniProt Q02223 1-184)
T1 sequence: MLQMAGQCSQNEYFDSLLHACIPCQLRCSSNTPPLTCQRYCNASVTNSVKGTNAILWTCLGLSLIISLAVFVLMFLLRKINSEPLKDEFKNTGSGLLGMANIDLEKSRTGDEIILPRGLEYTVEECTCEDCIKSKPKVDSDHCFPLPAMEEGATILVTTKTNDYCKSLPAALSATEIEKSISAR
Experiment: cell-based or functional assay
Give the quantity in nM, number only.

Example binders with recorded TDCC EC50 (EJM cells):
BCMA targeting trispecific protein 01F09 (other, trispecific; not shown: anti-albumin domain, anti-CD3 domain and the linkers of the trispecific; the C-terminal His6 that follows them is left out) VHH: EVQLVESGGGLVQPGRSLTLSCAASTNISSISPMGWYRQAPGKQRELVAAIHGHSTLYADSVKGRFTISRDNAKNSIYLQMNSLRPEDTALYYCNKVPWGRYHPRNVYWGQGTQVTVSS	0.945
BCMA targeting trispecific protein 01D10 (other, trispecific; not shown: anti-albumin domain, anti-CD3 domain and the linkers of the trispecific; the C-terminal His6 that follows them is left out) VHH: EVQLVESGGGLVQPGRSLTLSCAASTNIFSASPMGWYRQAPGKQRELVAAIHGSSTLYADSVKGRFTISRDNAKNSIYLQMNSLRPEDTALYYCNKVPWGRYHPRNVYWGQGTQVTVSS	0.453

Next, consider the following binder.
[in] I would be grateful if you could share the reported TDCC EC50 (EJM cells) for BCMA targeting trispecific protein 01G10 (other, not shown: large carriers; small tags and cut ends, trispecific) VHH: EVQLVESGGGLVQPGRSLTLSCAASTNEFSISPMGWYRQAPGKQRELVAAIHGLSTLYADSVKGRFTISRDNAKNSIYLQMNSLRPEDTALYYCNKVPWGAYHPRNVYWGQGTQVTVSS .
[out] 0.143
